method-description: Solubility in mineral oil
Assay type: physicochemical
run-conditions: oil or lipid, under certain conditions
measurement-kind: solubility

Ask | Item C=C(C)[C@@H]1CCC(C)=C[C@H]1c1c(O)cc(CCCCC)c(C(=O)O)c1O [CBDA, Δ(9)-tetrahydrocannabidiolic acid] has what recorded solubility?
Reply | ~6000 µg/mL
